- test_protocol: Components of the Cytosolic LPS Sensing Pathway: Gene Identification via Genome-wide siRNA Screen;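 also: robust z of the log signal after scaling to non-targeting control siRNA wells of the plate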
- condition_description: RAW264.7 macrophages, IL-1a HTRF, actives lie on both sides, screened at 100 nM (by protocol), cells primed 5 h with Pam3CSK4 first
Hit rate of the full screen: of about 53,000 sequences, about 3,700 (7%) were called active.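 The calls were made as follows: active = gene knockdowns whose robust z-score for IL-1 alpha signal is at least 2 or at most -2, so actives lie on both sides; inactive = the rest.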 Only a selection was taken, and actives are over-represented in it overall.
The reply should be one of these categories: active, inactive

Solved cases below.
• GCUCCUCCAUCAGUUAGAUTT against Ube2v2 = inactive
• GUAUUUUACACUCUUGUGGTT against Olfr898 = active
• GGAGAAGGAUAGAGAUGGUTT against Phf5a = inactive

Answer briefly: the call reported for GGACAACUUCCUAGGGCUCTT against Esyt3 in this assay.
inactive

Please answer likewise for GGAUAAUGCUCCAUCAUAGTT against Nab1
inactive

Also, GGAUGAGGUGAACUGAGGGTT against Tmem150b please.
inactive

How about CCUCCAAGACUUAAAAGUATT against Csde1 ?
inactive

Same for GCCCUCGGACUGAAAACAATT against Chrm5
inactive

# repeat for GGAAUCCUCUGAAUAACCUTT against Vmn1r172
inactive

Let us now turn to GCCUUUUAUACAUGUUUGATT against B130024G19Rik
inactive

Can you handle GCCAGUCAGAUGUACAGUCTT against Pbx1 next?
active

###

- test_protocol: Components of the Cytosolic LPS Sensing Pathway: Gene Identification via Genome-wide siRNA Screen;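 also: robust z of the log signal after scaling to non-targeting control siRNA wells of the plate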
- condition_description: RAW264.7 macrophages, IL-1a HTRF, actives lie on both sides, screened at 100 nM (by protocol), cells primed 5 h with Pam3CSK4 first
The campaign covered roughly 53,000 sequences. About 3,700 (7%) were called active.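 How the source made its calls: active means gene knockdowns whose robust z-score for IL-1 alpha signal is at least 2 or at most -2, so actives lie on both sides; inactive means the rest.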 Many of the other results were omitted from the sample, so actives are more common in it than they were.
Form entry, call: pick from true (1) for active, false (0) for inactive

Here are 10 sequences together with their reported answers.
* GGAAGGAGGACAGAGGAAUTT against Tmem19 | true (1)
* GGAGGUGUUCAUUGAAGUCTT against Nudcd2 | false (0)
* CCUGAACACAAGUGCUGGUTT against Clec4a4 | false (0)
* CGUACACCGUAUUCAUGACTT against Rapgef5 | true (1)
* GGUUUUAUGCAUUAGCUCCTT against Lipf | false (0)
* GCCUUGACGAUAGAUUAUUTT against Irf2 | false (0)
* GGGUUUGACAGAGAGAAGATT against Atp5g2 | false (0)
* GGCCAAGUGCACCAUCCUATT against Gng13 | false (0)
* GGAGGUUACAAUCCAUGAGTT against Anapc1 | false (0)
* GCCUAACCUGGUAUCCCAGTT against Zfp92 | false (0)

Query: recorded result category for GGAGAACAUCAAGAACAAUTT against Ap2m1 in this test
true (1)

###

- test_protocol: Components of the Cytosolic LPS Sensing Pathway: Gene Identification via Genome-wide siRNA Screen;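 also: robust z of the log signal after scaling to non-targeting control siRNA wells of the plate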
- condition_description: RAW264.7 macrophages, IL-1a HTRF, actives lie on both sides, screened at 100 nM (by protocol), cells primed 5 h with Pam3CSK4 first
Out of some 53,000 sequences screened, about 3,700 (7%) were called active. The entries come from a sample that favours actives as a whole.
z-score listing for selected sequences.
Answer using only a numeral; do not append any unit.

Look over these answered cases.
• GGCGGCAAGCAACAACAAUTT against Ssbp1 = 0.155
• GGUAAAAAAUGCUUUCAACTT against Olfr1008 = 0.696
• CCACAUGUUUGUCUCAAAATT against Gskip = 1.28
• GCACUGGAAAUUGUAUAAATT against Hyal6 = 2.19
• CGGUACUAAACAUUACCUCTT against Olfr633 = 0.957

Value lookup for z-score; key = GGCACACAAACAAUUGGUATT against Rrp36
-0.318

What do we get for GGAGUGUGUAAAGACAUAATT against Rnase2a ?
-0.685
